test: T. gondii ME49Luc in HeLa cells, luciferase assay, 72 h, no IFN-y (AID 1259421); conditions: hits give low values, concentration not given here
Among all 6,400 compounds or so, about 610 (9.5%) were called active. This excerpt belongs to a sample that is enriched for actives. *1 amine or outer side, *2 acyl side, *3 side chain or, on linkers, in order; H or OH if unused. Where a SMILES comes first, the peptide text is derived from it. [ ]: non-standard residue; d: D form. LeuΨ(S-CHOHCH2)Ala = CC(C)C[C@H](N[*:1])[C@@H](O)C[C@@H](C)C(=O)[*:2]
Some compounds, each annotated with its measured activity change, negative = inhibition.
ASSAY_METRIC: activity change, negative = inhibition

INSERT INTO measurements (compound, recorded_result) VALUES
  ('O=C(O)C1[O][Sb]2([O][Sb]34[O]C(C(=O)O)C([O]3)C(C(O)CO)[O]4)[O]C(C(O)CO)C1[O]2 (stereo not drawn)', '-75.8% (active)'),
  ('Cc1ccccc1C(=O)Nc1ccc(C(=O)N2CCCC(O)c3cc(Cl)ccc32)c(C)c1 (stereo not drawn)', '7.82% (inactive)'),
  ('CC(C)C[C@H](NC(=O)[C@H](CC(N)=O)NC(=O)[C@@H](NC(=O)[C@@H](N)CCC(=O)O)C(C)C)[C@@H](O)C[C@@H](C)C(=O)N[C@@H](C)C(=O)N[C@@H](CCC(=O)O)C(=O)N[C@@H](Cc1ccccc1)C(=O)O (H-EVN[LeuΨ(S-CHOHCH2)Ala]AEF-OH)', '3.01% (inactive)'),
  ('CC(=O)CC(=O)O', '-0.799% (inactive)'),
  ('O=C(O)CCCN1CCC(O[C@@H](c2ccc(Cl)cc2)c2ccccn2)CC1', '24.8% (inactive)'),
  ('NC(CC(F)C(=O)O)C(=O)O (stereo not drawn)', '4.86% (inactive)'),
  ('CC(C)NC[C@@H](C(=O)N1CCN(c2ncnc3c2[C@H](C)C[C@@H]3O)CC1)c1ccc(Cl)cc1', '9.17% (inactive)'),
  ('C[C@H](CCC(=O)NCC(=O)O)[C@H]1CCC2C3C(C[C@H](O)[C@@]21C)[C@@]1(C)CC[C@@H](O)CC1C[C@H]3O (stereo partly drawn)', '3.03% (inactive)'),
  ('O=C(CCCN1CCC(O)(c2cccc(C(F)(F)F)c2)CC1)c1ccc(F)cc1', '30.3% (inactive)'),
  ('[Cl][Ru]([Cl])([Cl])[Cl].c1ccc2[nH]ncc2c1.c1ccc2[nH]ncc2c1', '8% (inactive)'),
  ('CCCC1OC2CC3C4CCC5=CC(=O)C=CC5(C)C4C(O)CC3(C)C2(C(=O)CO)O1 (stereo not drawn)', '-4.58% (inactive)'),
  ('O=c1c2ccccc2oc2ccccc12', '16.7% (inactive)'),
  ('CN(C)C(=O)C(=O)c1cn(C)c2cc(Cl)c(C(=O)N3CCC(Cc4ccc(F)cc4)CC3)cc12', '-34.4% (inactive)'),
  ('O=C(Nc1cc2cc[nH]c2cn1)c1ccccc1', '-32.1% (inactive)'),
  ('CCc1cc2c(cc1N1CCC(N3CCOCC3)CC1)C(C)(C)c1[nH]c3cc(C#N)ccc3c1C2=O', '16.2% (inactive)'),
  ('CC(C)(C(=O)O)c1ccc(C(=O)CCCN2CCC(OC(c3ccccc3)c3ccccc3)CC2)cc1', '6.98% (inactive)'),
  ('CC(C)(C)c1ccc(C(=O)CCCN2CCC(OC(c3ccccc3)c3ccccc3)CC2)cc1', '-87.2% (active)'),
  ('CC(=O)c1cc([N+](=O)[O-])c(Sc2cccc(Cl)c2Cl)s1', '14.1% (inactive)');

====

experiment: T. gondii ME49Luc in HeLa cells, luciferase assay, 72 h, no IFN-y (AID 1259421); details: hits give low values, concentration not given here
Out of some 6,400 compounds screened, about 610 (9.5%) were called active. This excerpt belongs to a sample that is enriched for actives.
Some compounds, each annotated with its measured activity change, negative = inhibition.
ASSAY_METRIC: activity change, negative = inhibition (%)

INSERT INTO results (compound, recorded_result) VALUES
  ('COc1ccc(-c2oc3cc(OC)c(OC)c(OC)c3c(=O)c2OC)cc1', -3.53),
  ('CCCCC(=O)O[C@]1(C(=O)CO)[C@@H](C)CC2C3CCC4=CC(=O)C=C[C@]4(C)[C@@]3(F)C(O)C[C@@]21C (stereo not given in full)', 1.05),
  ('Cc1nc(C)c(-c2ccc(C3CCC(CC(=O)O)CC3)cc2)nc1C(N)=O (stereo not given)', 21.5),
  ('CC(=O)Oc1c(C)cc(OCC(O)CNC(C)C)c(C)c1C (stereo not given)', -4.5),
  ('CCCC(=O)Nc1cccc(NC(=O)c2ccccc2Br)c1', 17.4);

====

assay: T. gondii ME49Luc in HeLa cells, luciferase assay, 72 h, no IFN-y (AID 1259421); conditions: concentration not given here
Screen size: about 6,400 compounds; about 610 (9.5%) were called active. Rule as the data show it: active = activity change below about -70%; inconclusive = no clear call, values can overlap the other calls; inactive = above that. The entries come from a sample that favours actives as a whole.
Outcomes: 1 for active, 0 for inactive

INSERT INTO results (molecule, assigned_category) VALUES
  ('O=c1n(CC2CO2)c(=O)n(CC2CO2)c(=O)n1CC1CO1 (stereo not given)', 0),
  ('Cc1[nH]c(/C=C2/C(=O)Nc3ccc(F)cc32)c(C)c1C(=O)NC[C@H](O)CN1CCOCC1', 0),
  ('CC(C)OC(=O)c1cn(Cc2c(F)cccc2F)c2sc(-c3ccc(NC(=O)C(C)C)cc3)c(CN(C)Cc3ccccc3)c2c1=O', 1),
  ('Cc1cc2ncc(-c3ccccc3)nc2cc1C', 0),
  ('Cc1[nH]c(/C=C2\C(=O)Nc3ccccc32)c(C)c1CCC(=O)O', 0);

====

assay: T. gondii ME49Luc in HeLa cells, luciferase assay, 72 h, no IFN-y (AID 1259421); conditions: hits give low values, concentration not given here
Among all 6,400 compounds or so, about 610 (9.5%) were called active. For the sample, actives were picked, then their nearest neighbours and some compounds at random.
ASSAY_METRIC: activity change, negative = inhibition (%)

INSERT INTO measurements (molecule, readout_unit, recorded_result) VALUES
  ('C[C@@H]1CC[C@@]2(OC1)O[C@H]1C[C@H]3[C@@H]4CC=C5C[C@@H](O)CC[C@]5(C)[C@H]4CC[C@]3(C)[C@H]1[C@@H]2C', '%', 6.17),
  ('COc1cccc(-c2cc(=O)c3cc(OC)ccc3o2)c1', '%', 316),
  ('NC(CSSCC(N)C(=O)O)C(=O)O (stereo not given)', '%', 13.9),
  ('CC(C)(C)CC(C)(C)c1ccc(O)c(-n2nc3ccccc3n2)c1', '%', 47.6),
  ('COc1ccc(-c2cc(=O)c3c(O)cc(O[C@@H]4O[C@@H](CO[C@@H]5O[C@H](C)[C@@H](O)[C@H](O)[C@H]5O)[C@H](O)[C@@H](O)[C@H]4O)cc3o2)cc1O', '%', 6.66),
  ('N#Cc1ccncn1', '%', 17.2),
  ('CON=C1C[C@]2(C[C@@H]3C[C@@H](C/C=C(\C)C[C@@H](C)/C=C/C=C4\CO[C@@H]5[C@H](O)C(C)=C[C@@H](C(=O)O3)[C@]45O)O2)O[C@H](/C(C)=C/C(C)C)[C@H]1C', '%', -67.7),
  ('CC(N)(C(=O)O)c1ccc(-c2nn[nH]n2)cc1 (stereo not given)', '%', 3.49),
  ('Nc1[nH]nc2nnc(-c3c(-c4ccccc4)nn4ccccc34)cc12', '%', -19.2),
  ('CCCCC#Cc1nc(NC)c2ncn(C3OC(CO)C(O)C3O)c2n1 (stereo not given)', '%', -3.28);

====

assay: T. gondii ME49Luc in HeLa cells, luciferase assay, 72 h, no IFN-y (AID 1259421); conditions: hits give low values, concentration not given here
The whole screen tested about 6,400 compounds, of which about 610 (9.5%) were called active. The sample as a whole holds a higher share of actives than the screen did.
ASSAY_METRIC: activity change, negative = inhibition (%)

INSERT INTO measurements (molecule, readout_unit, recorded_result) VALUES
  ('CN(C)C(=O)NC1CCC(CCN2CCN(c3cccc(Cl)c3Cl)CC2)CC1 (stereo not given)', '%', 3.31),
  ('CCCC(=O)Oc1ccc2[nH]c(C(=O)c3cc4ccccc4[nH]3)cc2c1', '%', 5.11),
  ('COC(=O)C[C@H]1C(C)(C)C2(O)OC34CC2C(=O)[C@]1(C)C3CC[C@]1(C)C4=CC(=O)O[C@H]1c1ccoc1 (stereo not given in full)', '%', -5.47),
  ('C[N+](C)(C)CC(O)CC(=O)O (stereo not given)', '%', -0.966),
  ('CC(=O)OCC(=O)[C@H]1CCC2C3CCC4=CC(=O)CC[C@]4(C)C3CC[C@@]21C (stereo not given in full)', '%', 0.487),
  ('CCC(=O)OCC(=O)[C@@]1(OC(=O)CC)[C@H](C)CC2C3C([C@@H](O)C[C@@]21C)[C@@]1(C)C=CC(=O)C=C1C[C@H]3Cl (stereo not given in full)', '%', 2.29),
  ('O=C(Nc1ccc(O)cc1)c1ccccc1O', '%', 30.3),
  ('COc1ccc(CCNCC(O)COc2cccc(C)c2)cc1OC (stereo not given)', '%', 9.54),
  ('C[C@H]1O[C@H](O[C@H]2[C@H](O)[C@@H](O)[C@@H](O[C@H]3[C@H](O)[C@@H](O)[C@H](O)O[C@@H]3CO)O[C@@H]2CO)[C@H](O)[C@@H](O)[C@@H]1N[C@H]1C=C(CO)[C@@H](O)[C@H](O)[C@H]1O', '%', 8.26),
  ('NC(=S)N/N=C/c1ccncc1', '%', 6.58),
  ('O=C(Nc1ccccc1)NC1CC(C(=O)O)Nc2cc(Cl)cc(Cl)c21 (stereo not given)', '%', 13),
  ('O=C1Cc2cc(Cl)ccc2N1', '%', 8.1),
  ('O=C(NCCc1ccc(O)c(O)c1)C12CC3CC(CC(C3)C1)C2', '%', 1.2),
  ('C/C(=N\NC(=S)N1CCC1)c1ccccn1', '%', -84.6),
  ('c1ccc(Oc2cccnc2)cc1', '%', 5.26),
  ('Cc1cc(C#N)cc(C)c1Oc1nc(Nc2ccc(C#N)cc2)nc(N)c1Br', '%', -89.7),
  ('CCC(=O)O[C@]1(C(=O)CO)CC[C@H]2[C@@H]3CCC4=CC(=O)CC[C@]4(C)[C@H]3CC[C@@]21C', '%', -9.17),
  ('NC(=S)N/N=C/c1ncccc1N', '%', -83.2),
  ('CC(=O)O[C@]1(C(C)=O)CCC2C3C=C(Cl)C4=CC(=O)[C@@H]5C[C@@H]5[C@]4(C)C3CC[C@@]21C (stereo not given in full)', '%', 11.3),
  ('CCCCCC/C=C\CCCCCCCc1cccc(O)c1C(=O)O', '%', 6.32);
